System: Fibroblast
EXPERIMENT DESCRIPTION: Multiplex assay against human fibroblast
Assay type: toxicity, cell-based
CONDITION INFO: 24 h, 10 µM, compound concentration 10 uM, replicate 2
REPORTED METRIC: Population Apoptotic (%)
Write down the numeric answer in % and omit the unit.

Some solved entries appear below for comparison.
Cn1nc(C(F)(F)F)cc1-c1cnc(N2CCc3cc(S(=O)(=O)Nc4c(F)cc(Cl)cc4F)cc(N4CCCC4=O)c32)nc1 : 50
CNc1cc(Oc2cc(C(=O)Nc3cc(N4CCN(C)CC4)cc(C(F)(F)F)c3)ccc2C)ncn1 : 76
CN1C2CCC1CC(OC(c1ccc(F)cc1)c1ccc(F)cc1)C2.Cl (stereo unspecified) : 80

-- ask Look up Population Apoptotic (%): CCN1CCN(c2ccc(Nc3cc(N(C)C(=O)Nc4c(Cl)c(OC)cc(OC)c4Cl)ncn3)cc2)CC1
-- reply 100

-- ask Look up Population Apoptotic (%): COC(=N)c1nc2ccc3ncnc(Nc4ccc(OC)cc4F)c3c2s1
-- reply 50

-- ask Look up Population Apoptotic (%): O=C1N/C(=N/c2ccccc2F)S/C1=C\c1ccc(C(=O)O)cc1
-- reply 60

-- ask Look up Population Apoptotic (%): Cl.Oc1ccc2c3c1O[C@H]1c4[nH]c5c(c4C[C@@]4(O)[C@@H](C2)N(CC2CC2)CC[C@]314)C[C@@]1(O)[C@H]2Cc3ccc(O)c4c3[C@@]1(CCN2CC1CC1)[C@H]5O4
-- reply 76
